test system: UACC-257 melanoma; test: NCI tumour cell line growth inhibition, 48 h
Record form. Attribute: GI50. Fill in for each entry.

What value of measured GI50 is listed for CCCCn1c(=O)[nH]c(N)c([C@@H]2c3c([nH]c(=O)n(CCCC)c3=O)Oc3ccc4ccccc4c32)c1=O ? 2410 nM

And for CCN1CCN(CCC(=O)Nc2cccc(-n3cc(-c4ccncc4)c(-c4ccc(Cl)c(OC)c4)n3)c2)CC1 ? 864 nM

And for CC(C)=CCC/C(C)=C/CC/C(C)=C/CSC[C@H](NC(=O)CCCCCN1CCN(C)CC1)C(=O)NC1CCCCCC1 ? 1850 nM

And for COc1cc(/C=C/C(=O)c2cccc(-n3cc(-c4ccccc4)[nH]c3=O)c2)cc(OC)c1OC ? 1520 nM

And for O=C(O)c1ccc(N(/C=C/C(=O)C(F)(F)F)Cc2ccc(Cl)cc2)cc1 ? 30700 nM

* * *

system: UO-31 renal; assay: NCI tumour cell line growth inhibition, 48 h; in the data active = GI50 below about 0.43 µM; inactive = the rest
Answer with one of the outcomes yes (1) (active), no (0) (inactive)

What outcome does the record of this test show for O=c1[nH]c2ccccc2n1C1CCNCC1 ? no (0)

And for CCC(=C(c1ccc(OCCN2CCCCC2)cc1)c1ccc(OCCN2CCCCC2)cc1)c1ccc(Cl)cc1 ? no (0)

And for O=C(CCCc1ccc(N(CCCl)CCCl)cc1)NCc1ccccc1 ? no (0)

And for O=C(O)c1ccc(N(/C=C/C(=O)C(F)(F)F)Cc2ccc(Cl)cc2)cc1 ? no (0)

And for O=C(NCc1cn(Cc2cccc(Oc3ccccc3)c2)nn1)c1cccnc1Nc1ccc(F)cc1 ? no (0)

And for C=CCC1(O)c2ccccc2C(=O)c2c(OCC(=O)OCC)ccc(OCC(=O)OCC)c21 (configuration not stated) ? no (0)

And for CCN(Cc1ccc(OC)cc1)c1ccc(CO)c(Cl)c1 ? no (0)

And for NS(=O)(=O)c1ccc(N(/C=C/C(=O)C(F)(F)F)CC(=O)c2ccc(F)cc2)cc1 ? no (0)

And for O=S(=O)(NCCCNc1cc(-c2cn(-c3ccccc3)nc2-c2cccc(O)c2)ccn1)c1ccc(C(F)(F)F)cc1 ? no (0)

And for C[C@@H]1CN2[C@H]3[C@@H]1CC[C@]31CCC(=O)O[C@]1(C)[C@H]1CC[C@H]3CCC=C3[C@@H]12 ? no (0)

And for CCN1CCN(CCC(=O)Nc2cccc(-n3cc(-c4ccncc4)c(-c4ccc(Cl)c(OC)c4)n3)c2)CC1 ? no (0)

And for N#CCCNc1nonc1-c1nc2ccccc2n1CC(=O)c1ccc(N)cc1 ? yes (1)

And for Cc1cc(I)cc(CNCCN(C)C)c1O ? no (0)

And for CC[C@@]1(OP(=O)(O)O)C(=O)OCc2c1cc1n(c2=O)Cc2cc3ccccc3nc2-1 ? yes (1)

And for O=[N+]([O-])c1ccc(C2=NCCO2)cc1 ? no (0)

And for Cc1c(Cl)cccc1C(=O)Nc1nc2c(s1)CN(C(=O)Nc1cccc(C(F)(F)F)c1)CC2 ? no (0)

And for Cn1cc(-c2ccc3nc(-c4ccc(CC(=O)Nc5cc(C(C)(C)C)no5)cc4)cnc3c2)cn1 ? yes (1)

And for O=C1NC(=O)C(c2c[nH]c3ccccc23)=C1c1c[nH]c2ccccc12 ? no (0)

And for CCOc1ccc(N(C)c2ccc(/C=C/C3=[N+](C)c4ccccc4C3(C)C)cc2)cc1 ? no (0)

And for CC(C)=CCC/C(C)=C/CC/C(C)=C/CSC[C@H](NC(=O)CCCCCN1CCN(C)CC1)C(=O)NC1CCCCCC1 ? no (0)

And for C=CCc1cccc(C=O)c1O ? no (0)

And for COc1cc2c(c3oc(-c4ccc(O)cc4)c(O)c(=O)c13)CCC(C)(C)O2 ? yes (1)

* * *

system: RPMI-8226 leukemia; assay: NCI tumour cell line growth inhibition, 48 h
resultType: TGI (µM)
Expressed in µM, but write only the number.

What value of measured TGI is listed for CC(=O)c1ccc(Br)cc1NC1=CC(=O)c2ncccc2C1=O ? 8.95

And for CSC(=S)CC(O)[C@@H]1CC2c3ccccc3C1c1ccccc12 (some centres undefined) ? 20.7

* * *

test system: COLO 205 colon; test: NCI tumour cell line growth inhibition, 48 h
resultType: TGI (µM)
Expressed in µM, but write only the number.

What value of measured TGI is listed for NC(N)=N/N=C\c1c(-c2cccc([N+](=O)[O-])c2)nc2sccn12 ? 14.5

And for CC(C)[Si](OC12CCC(CC1O)CC2CO)(C(C)C)C(C)C (centres undefined) ? 42.2

And for O=S(=O)(NCCCNc1cc(-c2cn(-c3ccccc3)nc2-c2cccc(O)c2)ccn1)c1ccc(C(F)(F)F)cc1 ? 3.54

And for CC(C)(C)N(Cc1ccccc1)C(=O)/C=C\S(=O)c1ccccc1 (centres undefined) ? 12.8

And for Cc1c(Cl)cccc1C(=O)Nc1nc2c(s1)CN(C(=O)Nc1cccc(C(F)(F)F)c1)CC2 ? 4.36

And for COc1ccc(-c2nc3sc(-c4cc(OC)c(OC)c(OC)c4)nn3c2/C=C2/C(=O)Nc3ccc(F)cc32)cc1 ? 4.13

And for CCC(=C(c1ccc(OCCN2CCCCC2)cc1)c1ccc(OCCN2CCCCC2)cc1)c1ccc(Cl)cc1 ? 9.01

And for COC(=O)c1cc2ccc(O)c(O)c2cn1 ? 33.1

* * *

Record form. Attribute: TGI. Fill in for each entry.
system: MDA-MB-231 breast; assay: NCI tumour cell line growth inhibition, 48 h

What value of measured TGI is listed for COc1ccc2c(O)c(Oc3ccc(Cl)cc3)c(=O)oc2c1 ? > 100 µM

And for COc1cc2cc(NCc3cccc(Cl)c3)nc(C)c2cc1OC ? 16.6 µM

And for ClC1=C(Cl)C(Cl)(C2(Cl)C(Cl)=C(Cl)C(Cl)=C2Cl)C(Cl)=C1Cl ? 1.42 µM

And for Cc1cccc2cc(/C=C/C(=O)/C=C/c3ccc(Cl)cc3)c(=O)[nH]c12 ? > 100 µM

And for CC(NCc1c(O)ccc2c(-c3ccccc3)cc(=O)oc12)C(=O)O (configuration not stated) ? > 100 µM

And for CN(C)CCNC(=O)c1cc2c3cc(Cl)ccc3[nH]c2c2ncccc12 ? 9.77 µM

And for C/C(=C\C(=O)O[C@H]1[C@@H]2[C@H](C)CC[C@H]2[C@]2(C)O[C@@]1(C1CCCCC1)C[C@H]2OC(=O)CO)c1ccccc1 ? 13 µM

And for O=C1c2ccccc2-c2nnc3c(c21)Cc1ccccc1C3 ? > 10 µM

And for C=CCN1C(=O)CC2[C@@H]3CCc4cc(O)ccc4C3CC[C@]2(C)C1=O (some centres not stated) ? > 10 µM

And for Nc1ccc(/C=C/c2ccc3ncccc3c2)cc1 ? > 100 µM

And for C[N+]1(C)C2CC(OC(=O)C(CO)c3ccccc3)CC1C1OC12 (configuration not stated) ? > 100 µM

And for CC(C)OC(=O)NCCn1cc(-c2ccccc2)nn1 ? > 100 µM

And for CN(C)CCNc1ccc(NCC[N+](C)(C)Cc2ccc([N+](=O)[O-])cc2)c2c1C(=O)c1c(O)ccc(O)c1C2=O ? > 100 µM

And for O=C(CCC(=O)c1ccsc1)c1ccsc1 ? > 100 µM

And for Cc1cn2cc(-c3cccs3)nc2s1 ? > 100 µM

And for O=C1CSC(c2c[nH]c3ccccc23)N1c1cccc(Cl)c1 (configuration not stated) ? 80.2 µM

And for CC(C)=CCc1cc2c(cc1O)C1=C(C(=O)C3=C(NCCS3(=O)=O)C1=O)C(C=C(C)C)O2 (configuration not stated) ? 16.2 µM

And for C=CC1(C)CCC2C(=CCC3C2(C)CC(O)C(O)C3(C)COC2OC(CO)C(O)C(O)C2O)C1 (configuration not stated) ? > 100 µM

And for O=c1nc2n(-c3cccc(Cl)c3)c3ccc([N+](=O)[O-])cc3cc-2c(=O)[nH]1 ? 12.3 µM

And for Clc1ccc(Cc2nc3ccccc3o2)cc1 ? > 100 µM

And for CC1(C)N=C(N)N=C(N)N1c1ccc(OCCCNC(=O)Nc2ccc(S(=O)(=O)F)cc2)c(Cl)c1 ? > 100 µM

And for O=c1[nH]c2ccccc2n1C1CCNCC1 ? > 100 µM

* * *

test system: SF-295 CNS; assay: NCI tumour cell line growth inhibition, 48 h
Where a SMILES comes first, the peptide text is derived from it. Bridges are numbered along the chain shown (N, C = ends). The star is where a group is joined. Cbz = O=C(OCc1ccccc1)*
Record form. Attribute: TGI. Fill in for each entry.

What value of measured TGI is listed for CCOC(=O)CC1=N/C(=N/C(=N)N[N+](=O)[O-])SC1 ? > 100 µM

And for Cc1cn2cc(-c3cccs3)nc2s1 ? > 100 µM

And for NCCCCCC(CCN)SCC1OC(n2cnc3c(N)ncnc32)C(O)C1O (stereo not given) ? > 1500 µM

And for Cc1cc(N(CCC#N)CCC#N)ccc1/C=C(\NC(=O)/C=C/c1ccccc1)C(=O)N=[N+]=[N-] ? > 100 µM

And for CNC(=O)C1CCCCNC(=O)CCC(NC(=O)OCc2ccccc2)C(=O)N1 (stereo not drawn) (Cbz-Glu-Lys-NHMe; lactam 1-2; configuration not given here) ? > 100 µM

And for Cc1ccc2c(c1C)C(=O)C1(C2)Cc2ccc3c(c2C1=O)CCC3 (stereo not given) ? > 100 µM

And for CSC(=S)CC(O)[C@@H]1CC2c3ccccc3C1c1ccccc12 (stereo not given in full) ? 34.4 µM

And for O=C(/C=C\c1ccc(O)c(O)c1)c1ccccc1O ? 54.4 µM

And for COC(=O)c1c(O)c(C#N)c2[nH]c3ccccc3n2c1=O ? > 100 µM

And for COC(=O)c1c2c(c(C)[n+]([O-])c1C)C(=O)C(NCc1ccc(OC)cc1)=CC2=O ? 5.09 µM
